Values were extracted from PubChem BioAssay (NCI).

System: CAKI-1 renal
Assay: NCI-60 one-dose screen, 48 h
Conditions: 10 µM unless noted
Compounds without any hit were thinned out: in the full panel of roughly 83,000, 20% have a hit. Activity calls are given as the source filed them. How the source made its calls: active means growth percent below 10; inactive means the rest.
Classes to choose from: Y (active), N (inactive)

# compound, subject_of_test, category_label
data = [
    ("Nc1cc(C(=O)O)cc(-n2c(O)c(C=C3N=c4ccccc4=N3)sc2=S)c1", "CAKI-1 renal", "N"),
]

Problem: Look up the recorded call for COC(=O)c1ccc2cc(OC)c(OC)cc2c1 in this test.
Solution: N

Problem: Similarly, Clc1ccc2nn3c4ccccc4c(OCCN4CCOCC4)nc3c2c1 ?
Solution: N

Problem: Next record, please: O=C(NCCCCCCNC(=O)OCc1ccc2c(Cl)cc(Cl)c(O)c2n1)OCc1ccc2c(Cl)cc(Cl)c(O)c2n1
Solution: Y

Problem: Would you mind doing O=C(Oc1ccc2c(c1)sc1nc(-c3ccccc3)[nH]c(=O)c12)C(F)(F)F as well?
Solution: N

Problem: # repeat for C=C1C(=O)O[C@H]2[C@H]1CC/C(COC(=O)NCc1ccc(Cn3c(=O)sn(-c4ccccc4)c3=O)cc1)=C\CC[C@@]1(C)O[C@@H]21
Solution: N

Problem: Now try CC(=O)N1N=C(c2ccc(Nc3nc(Nc4ccc(F)cc4)nc(Nc4ccc(F)cc4)n3)cc2)CC1c1ccc(N(C)C)cc1 (centres undefined) .
Solution: N

Problem: Here is the next compound: O=C(OCc1ccc2c(Cl)cc(Cl)c(O)c2n1)N1CCN(C(=O)c2cc3ccccc3[nH]2)CC1
Solution: N

Problem: Try this compound too: CC1=C(Cl)C(=O)c2cc(C)ccc2C1=O
Solution: N

====

Tested on: OVCAR-3 ovarian
Assay: NCI-60 one-dose screen, 48 h
Conditions: 10 µM unless noted
The panel holds about 83,000 compounds, 20% with a hit somewhere; the sample as a whole holds those more often. Activity calls are given as the source filed them. How the source made its calls: active means growth percent below 10; inactive means the rest.
Bench note: report the call from True for active, False for inactive

Solved entries:
# molecule, category_label
measured = [
    ("CCCCC#Cc1c(I)n(C2OC(CO[Si](C)(C)C(C)(C)C)C3OC(C)(C)OC32)c(=O)n(C(=O)c2ccccc2)c1=O (configuration not stated)", "True"),
    ("COC(=O)[C@@]12CC=C(C)[C@]3(C[C@H](c4ccoc4)OC3=O)[C@H]1C=C[C@@H](O)[C@@]2(O)C(=O)OC", "False"),
    ("C[N+]1=C(/C=C/c2ccccc2Cl)C(C)(C)c2ccccc21", "False"),
    ("Cc1ccc(S(=O)(=O)OC[C@]23CCC(C)(C)C[C@H]2C2=CC[C@@H]4[C@@]5(C)CCCNC(C)(C)[C@@H]5CC[C@@]4(C)[C@]2(C)CC3)cc1", "False"),
    ("Oc1c(CN2CCC(N3CCOCC3)CC2)cc(Cc2cc(CN3CCC(N4CCOCC4)CC3)c(O)c3ncccc23)c2cccnc12", "False"),
    ("O=C(O)c1cn(C2CC2)c2cc(N3CCN(C(=O)N/N=C/c4cccc5ccccc45)CC3)c(F)cc2c1=O", "False"),
]

Attention now shifts to the item below.
Problem: Dear all, I need the recorded test outcome for C=C(C)[C@@H]1CC[C@]2(CO)CC[C@]3(C)[C@H](CC[C@@H]4[C@@](C)(CCCN)[C@H](C(=C)C)CC[C@]43C)[C@@H]12 , thank you.
Solution: True

====

Test system: KM12 colon
Experiment: NCI-60 one-dose screen, 48 h (100 = growth as untreated, 0 = no growth, -100 = all killed)
Settings: 10 µM unless noted
The panel holds about 83,000 compounds, 20% with a hit somewhere; the sample as a whole holds those more often.
# note: boundary value 90% maps to no; growth below it maps to yes

Use the examples below as a reference point.
# compound, subject_of_test, category_label
data = [
    ("Cc1ccc2nc(-c3ccc(C(=O)N/N=C/c4ccc([N+](=O)[O-])cc4)cc3)[nH]c2c1", "KM12 colon", "no"),
    ("CCOC(=O)c1ccc[nH]1", "KM12 colon", "no"),
    ("CCCCCc1ccc(S(=O)(=O)Nc2ccc3nc(N)oc3c2)cc1", "KM12 colon", "yes"),
    ("COc1cc2ncnc(Nc3ccc(F)c(Cl)c3)c2cc1OCC(=O)N1CCOCC1", "KM12 colon", "no"),
    ("Cc1ccc(S(=O)(=O)N2CCCN(c3nc(-c4ccccc4)nc4nc(-c5ccccc5)oc34)CC2)cc1", "KM12 colon", "no"),
]

Problem: Please check: growth for C=CN(C(=O)N1CCN(c2cc3c(cc2F)c(=O)c(C(=O)O)cn3C2CC2)CC1)c1nc(-c2ccc(Cl)cc2)cs1 , strictly under 90% or not?
Solution: yes

Problem: What do you have for Nc1nc(C(=O)N/N=C/c2ccc(F)cc2)nn1-c1ccc(S(N)(=O)=O)cc1 ?
Solution: no

Problem: Repeat with Nc1ccc(-c2ccncc2)cc1NC(=O)N1CCCC1
Solution: no

====

Tested on: NCI-H460 lung
Assay: NCI-60 one-dose screen, 48 h (100 = growth as untreated, 0 = no growth, -100 = all killed)
Details: 10 µM unless noted
About 83,000 compounds went through this panel and 20% of them were active in at least one assay; those are over-represented in the sample as a whole.
Each entry below carries its recorded growth.
Write it as a number; the unit % goes unstated.

Field: example entries. Status: answers known.
# molecule, growth (%)
rows = [
    ("CC(C)Cc1nc(Nc2ccccc2)[nH]c(=O)c1C#N", 59.8),
    ("CC1=C2[C@@H](CC1)[C@]1(C)O[C@@](C3CCNCC3)(C[C@H]1OC(=O)CO)[C@H]2OC(=O)/C=C/c1ccccc1", 94.1),
    ("O=S(=O)(Nc1cc(F)cc(F)c1)c1ccc(-c2cnc(C3CC3)o2)cc1", 25.3),
]

Problem: Please look up its growth: CCn1cc(C(=O)N/N=C/c2cccc(F)c2)c(=O)c2cc(F)c(N3CCNC(C)C3)c(F)c21 (stereo not given)
Solution: -79

Problem: Queued: c1ccc2cc(Cn3cc(CSc4nc5ccccc5s4)nn3)ccc2c1
Solution: 106

====

Tested on: NCI-H322M lung
Assay: NCI-60 one-dose screen, 48 h (100 = growth as untreated, 0 = no growth, -100 = all killed)
Conditions: 10 µM unless noted
Method: Growth inhibition of the NCI-H322M human Non-Small Cell Lung tumor cell line is measured as a screen for anti-cancer activity. Cells are grown in 96 well plates and exposed to the test compound for 48 hours. Compounds are tested at a single concentration, which is 10^-5 M for most compounds. The reported endpoint is percent growth (GI% or GIPRCNT), where numbers from 0 - 100% represent growth inhibition, and numbers from -100% - 0 represent cell death. […]
This is part of a sample that, as a whole, favours compounds with a hit. Of some 83,000 tested, about 20% had one in any assay.
Would you mind labelling by growth? At or over 90% is criterion met, under is criterion not met.

Past entries and their recorded results:
# compound, category_label
records = [
    ("CC(C)=CC(=O)N[C@H]1CC[C@]2(C)C3CC[C@]4(C)C(C(C)N(C)C)=CCC4C3CCC2[C@H]1O (stereo partly drawn)", "criterion not met"),
    ("Nc1nc(N)c2c(n1)NC(c1cccc(Nc3ccnc4cc(C(F)(F)F)ccc34)c1)CC(c1ccc3c(c1)OCO3)=N2 (stereo not drawn)", "criterion met"),
    ("C=C1C(=O)O[C@H]2[C@H]1CC/C(COC(=O)NCc1ccc(Cn3c(=O)sn(-c4ccc(I)cc4)c3=O)cc1)=C\\CC[C@@]1(C)O[C@@H]21", "criterion met"),
]

Problem: Tell me whether growth is at least 90% here: CCn1cc(Cc2cc(C(=O)Nc3cc4cc(OC)c(OC)cc4c(C)n3)ccc2Cl)cn1
Solution: criterion met

Problem: Try CN1C(=O)/C(=C/c2ccc(C(=O)Nc3ncc(Cc4cc(Cl)ccc4Cl)s3)cc2)SC1=S next.
Solution: criterion not met

Problem: Next up: Cc1oc(-c2ccc(Cl)cc2)nc1C1=NN(C(=O)c2ccncc2)C(c2ccccc2)C1 (stereo not drawn)
Solution: criterion met

====

Test system: MDA-MB-231 breast
Experiment: NCI-60 one-dose screen, 48 h
Conditions: 10 µM unless noted
This is part of a sample that, as a whole, favours compounds with a hit. Of some 83,000 tested, about 20% had one in any assay. Calls of active or inactive are those of the source. Rule for the calls: active = growth percent below 10; inactive = the rest.
In this exercise, the only acceptable responses are TRUE (active), FALSE (inactive)

Check out these entries, answers already filled in.
# compound, category_label
measured = [
    ("COc1cc2c(c(OC)c1OC)C(=O)CC(c1cccc(C(=O)Nc3ccc(C#N)cc3)c1)O2 (stereo not drawn)", "FALSE"),
    ("NC(=O)c1ccccc1OCC(=O)Nc1ccc(Cl)c(Cl)c1", "FALSE"),
]

Problem: Dear all, I need the recorded test outcome for CCOC(=O)/C(=C(/C)NCC(C)C)c1cc(O)c(O)c2c(C)cc(=O)[nH]c12 , thank you.
Solution: FALSE

Problem: Moving on to CCOC(=O)c1cnn(CC(C)O)c1NC(=O)NCc1cccc(F)c1 (stereo not drawn)
Solution: FALSE

Problem: Same for CCCCC#Cc1c(I)n(C2OC(CO[Si](C)(C)C(C)(C)C)C3OC(C)(C)OC32)c(=O)n(C(=O)c2ccccc2)c1=O (stereo not drawn)
Solution: FALSE

Problem: # iterate: Cc1c2ccccc2nc2cc3c(cc12)[C@H]1CC[C@]2(C)C(=O)CC[C@H]2[C@@H]1CC3
Solution: FALSE

Problem: Can you check COC(=O)/C(CCC=C(C)C)=C1\[C@@H](OC(C)=O)C[C@@]2(C)[C@H]1C/C(=N/O)[C@H]1[C@@]3(C)CC/C(=N\O)[C@@H](C)[C@@H]3CC[C@@]12C next?
Solution: FALSE

Problem: Another: CCOC(=O)c1c(NC(=O)c2ccccc2)sc2c3c(ccc12)OCN(C)C3
Solution: TRUE

Problem: Entry CCOC(=O)c1cnn(CC(C)O)c1NC(=O)NCc1ccccc1C(F)(F)F (stereo not drawn) please
Solution: FALSE

Problem: Further, for O=C(Nc1ccc(Nc2ccncc2)cc1)c1ccc(Nc2ccnc3ccc([N+](=O)[O-])cc23)cc1 ?
Solution: FALSE

Problem: Input CCCN(CCSSCCNc1nc(N(C)O)nc(N(C)O)n1)c1nc(N(C)O)nc(N(C)O)n1
Solution: FALSE

Problem: And for Cc1cc(O)c(=O)cc2c1C[C@H]1CC(C)(C)/C=C/C[C@]3(C)Oc4cc(=O)c(O)cc(C)c4C[C@H]3C[C@H](O)[C@@]1(C)O2 ?
Solution: FALSE

Problem: Let us now turn to COC(=O)c1c2c(c[n+]([O-])c1C)C(=O)C=C(NCc1ccccc1)C2=O
Solution: TRUE
